src = ChEMBL document CHEMBL2046282

# ASSAYED_TARGET: RAF proto-oncogene serine/threonine-protein kinase (Homo sapiens)
# Sequence (P04049 whole entry): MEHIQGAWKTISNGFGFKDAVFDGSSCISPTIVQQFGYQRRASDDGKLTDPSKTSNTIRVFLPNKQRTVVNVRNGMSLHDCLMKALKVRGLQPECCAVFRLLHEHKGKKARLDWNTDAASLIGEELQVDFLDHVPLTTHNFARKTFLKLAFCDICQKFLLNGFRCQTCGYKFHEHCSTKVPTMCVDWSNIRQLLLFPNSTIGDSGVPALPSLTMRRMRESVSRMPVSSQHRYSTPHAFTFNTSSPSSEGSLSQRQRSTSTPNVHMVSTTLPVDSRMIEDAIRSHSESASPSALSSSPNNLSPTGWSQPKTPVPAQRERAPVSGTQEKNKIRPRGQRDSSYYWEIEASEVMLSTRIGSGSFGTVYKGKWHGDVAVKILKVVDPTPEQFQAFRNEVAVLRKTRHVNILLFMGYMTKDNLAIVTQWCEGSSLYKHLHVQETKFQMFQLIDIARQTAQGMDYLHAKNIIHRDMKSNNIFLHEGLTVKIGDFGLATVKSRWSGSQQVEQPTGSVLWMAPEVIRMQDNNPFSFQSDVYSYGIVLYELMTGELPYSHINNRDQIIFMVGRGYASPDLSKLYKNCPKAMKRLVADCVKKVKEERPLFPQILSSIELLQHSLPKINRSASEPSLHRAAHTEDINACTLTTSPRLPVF
MEASURED_ENDPOINT: IC50

Request: So what does the record say about IC50 for CC(C)C[C@H]1CN(c2ccc(C(F)(F)F)c(C(=O)c3cccnc3N)n2)CCN1 ?
Result: > 2000 nM

----------
# ASSAYED_TARGET: Mitogen-activated protein kinase 3 (Homo sapiens)
# Sequence (P27361 whole entry): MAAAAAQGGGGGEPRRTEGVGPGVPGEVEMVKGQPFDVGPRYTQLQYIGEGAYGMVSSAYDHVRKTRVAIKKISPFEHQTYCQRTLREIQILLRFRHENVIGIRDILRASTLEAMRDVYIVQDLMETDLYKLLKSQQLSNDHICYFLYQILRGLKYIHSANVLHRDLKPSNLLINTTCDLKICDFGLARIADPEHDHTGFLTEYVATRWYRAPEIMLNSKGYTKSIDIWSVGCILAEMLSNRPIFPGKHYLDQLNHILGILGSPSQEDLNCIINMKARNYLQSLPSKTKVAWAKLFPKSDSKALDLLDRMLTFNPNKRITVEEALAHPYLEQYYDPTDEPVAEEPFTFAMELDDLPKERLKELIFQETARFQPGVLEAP
# EXPERIMENTAL_DETAILS: Inhibition of ERK1
MEASURED_ENDPOINT: IC50

Request: Any idea what its IC50 is? The compound is CC(C)C[C@H]1CN(c2ccc(C(F)(F)F)c(C(=O)c3cccnc3N)n2)CCN1
Result: > 2000 nM

----------
# ASSAYED_TARGET: Protein kinase C theta type (Homo sapiens, UniProt Q04759)
# Sequence (Q04759 whole entry): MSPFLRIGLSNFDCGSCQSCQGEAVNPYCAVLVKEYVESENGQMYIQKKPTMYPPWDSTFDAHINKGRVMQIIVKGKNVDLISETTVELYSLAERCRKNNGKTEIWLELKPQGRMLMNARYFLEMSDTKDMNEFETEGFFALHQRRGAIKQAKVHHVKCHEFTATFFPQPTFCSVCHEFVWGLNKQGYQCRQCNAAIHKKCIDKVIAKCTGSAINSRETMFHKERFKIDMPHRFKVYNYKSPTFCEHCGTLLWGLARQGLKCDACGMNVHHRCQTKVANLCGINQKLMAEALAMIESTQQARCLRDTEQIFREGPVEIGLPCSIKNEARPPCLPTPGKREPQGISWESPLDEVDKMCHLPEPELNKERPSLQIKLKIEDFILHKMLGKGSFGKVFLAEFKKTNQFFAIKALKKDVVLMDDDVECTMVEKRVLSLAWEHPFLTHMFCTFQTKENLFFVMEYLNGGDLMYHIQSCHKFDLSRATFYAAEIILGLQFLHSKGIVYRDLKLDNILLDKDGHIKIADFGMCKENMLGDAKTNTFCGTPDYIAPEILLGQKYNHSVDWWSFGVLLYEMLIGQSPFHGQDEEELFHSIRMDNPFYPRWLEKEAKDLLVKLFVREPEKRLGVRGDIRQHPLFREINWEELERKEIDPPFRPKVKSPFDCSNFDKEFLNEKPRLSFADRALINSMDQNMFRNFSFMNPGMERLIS
MEASURED_ENDPOINT: Ki (nM)
Answers are plain numbers, in nM.

Request: Tell me the measured Ki of CC(C)C[C@H]1CN(c2ccc(C(F)(F)F)c(C(=O)c3cccnc3N)n2)CCN1 , please.
Result: 3

----------
# ASSAYED_TARGET: Mitogen-activated protein kinase 10 (Homo sapiens)
# Sequence (P53779 whole entry): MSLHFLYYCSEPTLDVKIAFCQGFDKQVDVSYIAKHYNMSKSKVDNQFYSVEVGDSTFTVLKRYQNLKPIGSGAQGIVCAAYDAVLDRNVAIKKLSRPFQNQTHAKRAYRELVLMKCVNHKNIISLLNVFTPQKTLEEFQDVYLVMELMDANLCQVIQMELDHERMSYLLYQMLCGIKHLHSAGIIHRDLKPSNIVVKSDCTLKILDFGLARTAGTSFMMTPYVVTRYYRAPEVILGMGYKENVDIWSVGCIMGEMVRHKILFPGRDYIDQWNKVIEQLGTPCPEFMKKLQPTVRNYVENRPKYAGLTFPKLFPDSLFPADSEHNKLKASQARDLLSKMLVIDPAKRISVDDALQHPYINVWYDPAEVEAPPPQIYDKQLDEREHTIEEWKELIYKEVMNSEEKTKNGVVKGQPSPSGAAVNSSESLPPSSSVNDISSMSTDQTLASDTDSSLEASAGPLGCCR
# EXPERIMENTAL_DETAILS: Inhibition of JNK3
pKi: −log10 of the molar value.
MEASURED_ENDPOINT: pKi

Request: What does the data say about its pKi? Entry: CC(C)C[C@H]1CN(c2ccc(C(F)(F)F)c(C(=O)c3cccnc3N)n2)CCN1
Result: < 5.40

----------
# ASSAYED_TARGET: Protein kinase C theta type (Homo sapiens)
# EXPERIMENTAL_DETAILS: Inhibition of PKCtheta-mediated IL-2 production by cell based assay
MEASURED_ENDPOINT: IC50 (nM)
One number for each entry, in nM.

Please review the entries below; each comes with its answer.
{"SMILES_STRING": "CC(C)C[C@H]1CN(c2ccc(Cl)c(C(=O)c3cccnc3N)n2)CCN1", "UNIT_DESCRIPTOR": "nM", "IC50": 58}
{"SMILES_STRING": "CC(C)C[C@H]1CN(c2ccc(C(F)(F)F)c(C(=O)c3cccnc3N)n2)CCN1", "UNIT_DESCRIPTOR": "nM", "IC50": 52}
{"SMILES_STRING": "CC(C)C[C@H]1CN(c2ccc(OC(F)F)c(C(=O)c3cccnc3N)n2)CCN1", "UNIT_DESCRIPTOR": "nM", "IC50": 229}

Now for a further molecule.
Request: Consider the molecule CC(C)C[C@H]1CN(c2cccc(C(=O)c3cccnc3N)n2)CCN1 and give its measured IC50.
Result: 165

----------
Please respond with reported pKi for every item in the list.
# ASSAYED_TARGET: Protein kinase C delta type (Homo sapiens, UniProt Q05655)
# Sequence (Q05655 whole entry): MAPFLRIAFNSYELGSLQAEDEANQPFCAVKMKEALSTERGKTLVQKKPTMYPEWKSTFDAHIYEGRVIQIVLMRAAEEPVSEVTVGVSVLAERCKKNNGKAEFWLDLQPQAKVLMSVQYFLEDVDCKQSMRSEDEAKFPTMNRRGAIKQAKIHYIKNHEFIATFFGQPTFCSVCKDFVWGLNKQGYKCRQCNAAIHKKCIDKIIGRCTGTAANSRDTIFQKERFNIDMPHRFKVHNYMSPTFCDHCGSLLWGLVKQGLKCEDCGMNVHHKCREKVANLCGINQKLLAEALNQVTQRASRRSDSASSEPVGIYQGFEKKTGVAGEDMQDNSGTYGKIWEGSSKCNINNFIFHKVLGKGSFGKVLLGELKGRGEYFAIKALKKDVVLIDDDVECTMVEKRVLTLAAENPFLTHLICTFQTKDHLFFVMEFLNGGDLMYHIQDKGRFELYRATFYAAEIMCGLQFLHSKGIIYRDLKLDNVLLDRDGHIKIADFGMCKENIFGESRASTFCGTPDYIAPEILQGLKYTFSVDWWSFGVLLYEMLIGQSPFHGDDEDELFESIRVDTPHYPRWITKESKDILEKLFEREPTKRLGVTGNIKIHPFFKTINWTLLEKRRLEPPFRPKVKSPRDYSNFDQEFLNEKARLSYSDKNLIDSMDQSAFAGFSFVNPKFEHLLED
# EXPERIMENTAL_DETAILS: Inhibition of PKCdelta
Give bare numbers, as −log10 of the molar value.

{"SMILES_STRING": "CC(C)C[C@H]1CN(c2ccc(Cl)c(C(=O)c3cccnc3N)n2)CCN1", "pKi": 7.66}
{"SMILES_STRING": "CC(C)C[C@H]1CN(c2ccc(OC(F)F)c(C(=O)c3cccnc3N)n2)CCN1", "pKi": 7.06}

// for each compound in input: emit pKi
1. CC(C)C[C@H]1CN(c2ccc(C(F)(F)F)c(C(=O)c3cccnc3N)n2)CCN1
2. CC(C)C[C@H]1CN(c2cccc(C(=O)c3cccnc3N)n2)CCN1

Result:
7.43
7.70
